Where do these numbers come from? They come from PubChem BioAssay (NCI).

Each item that follows carries a reported growth.
system: HCT-15 colon; assay: NCI-60 one-dose screen, 48 h (100 = growth as untreated, 0 = no growth, -100 = all killed); details: 10 µM unless noted
Compounds without any hit were thinned out: in the full panel of roughly 83,000, 20% have a hit. Active and inactive are the calls of the source. How the source made its calls: active means growth percent below 10; inactive means the rest.

CC1CC(O)CC(C)(C)C1.CC1CC(O)CC(C)(C)C1.CC1CC(O)CC(C)(C)C1.CC1CC(O)CC(C)(C)C1.[Ti] (stereo not given)
110% (inactive)
O=P(O)(O)OC1C(OP(=O)(O)O)C(OP(=O)(O)O)C(OP(=O)(O)O)C(OP(=O)(O)O)C1OP(=O)(O)O.[Cu+2] (stereo not given)
102% (inactive)
C/C=C/C(=O)OCCCCCCCCCCCC
123% (inactive)

Q) I have this compound here, COCCCNC1=C(C#N)C(=O)NC(c2cccs2)S1 (stereo not given) , and I need its recorded growth.
A) 98.2% (inactive)

Q) And then CCOC(=O)c1ccc(C(=N)N)cc1 , what is it?
A) 103% (inactive)

Q) And then Clc1ccc2sc(-c3ccccc3)nc2c1 , what is it?
A) 100% (inactive)

Q) And then NNC(=O)Nc1ccccc1 , what is it?
A) 99.8% (inactive)

---

tested on: HCT-15 colon; test: NCI-60 one-dose screen, 48 h (100 = growth as untreated, 0 = no growth, -100 = all killed); conditions: 10 µM unless noted
Compounds without any hit were thinned out: in the full panel of roughly 83,000, 20% have a hit. The source made the active and inactive calls. The calls were made as follows: active = growth percent below 10; inactive = the rest.
Result type: growth

Consider the reported growth for these compounds:
CC1NC(C)c2ccc3ccccc3c2O1 (stereo unspecified)
106% (inactive)
CCOCCC(=O)O
108% (inactive)
CN(C)CC(CN(C)C)C(O)c1ccccc1 (stereo unspecified)
99.3% (inactive)

Q) I have this compound here, N#Cc1c(N)nc2c(c(-c3ccc(Cl)cc3)nn2-c2ccccc2)c1C#N , and I need its recorded growth.
A) 98.6% [100 µM] (inactive)

Q) And then Cc1cc(=NO)cc(C)n1O , what is it?
A) 113% (inactive)

Q) And then S=c1nn[nH]n1C1CCCCC1 , what is it?
A) 115% (inactive)

Q) And then CCn1c2ccc(N(C)C)cc2c2cc(N(C)C)ccc21 , what is it?
A) 112% (inactive)

Q) And then CC1(C)CC(=O)NC1=O , what is it?
A) 110% (inactive)

Q) And then COc1ccc2oc3c(ccc[n+]3C)c(=O)c2c1 , what is it?
A) 100% (inactive)

Q) And then OCc1ccccc1F , what is it?
A) 15% (inactive)

Q) And then COc1ccc(/C=N/Nc2nc3ccccc3s2)cc1 , what is it?
A) 90.4% (inactive)

Q) And then CC(=O)c1cccc(OC(=O)c2ccccc2)c1 , what is it?
A) 127% (inactive)

---

tested on: M14 melanoma; assay: NCI-60 one-dose screen, 48 h; details: 10 µM unless noted
This is part of a sample that, as a whole, favours compounds with a hit. Of some 83,000 tested, about 20% had one in any assay. Calls of active or inactive are those of the source. The calls were made as follows: active = growth percent below 10; inactive = the rest.
Give one outcome, nothing more. List: yes (1) = active, no (0) = inactive

Completed entries (count: 4):
COCCCNC1=C(C#N)C(=O)NC(c2cccs2)S1 (stereo unspecified)
no (0)
CCN(C)c1ccccc1
no (0)
O=[N+]([O-])c1ccc(NC(c2ccccc2)c2ccc3cccnc3c2O)cc1 (stereo unspecified)
yes (1)
COc1ccc(/C=N/Nc2nc3ccccc3s2)cc1
no (0)

Turning to the following compound.
Q) Hi team, can someone confirm the assay call for Cc1ccc(C(=O)c2ccc(C)cc2)cc1 ?
A) no (0)

---

system: 786-0 renal; assay: NCI-60 one-dose screen, 48 h; conditions: 10 µM unless noted
About 83,000 compounds went through this panel and 20% of them were active in at least one assay; those are over-represented in the sample as a whole. Calls of active or inactive are those of the source. How the source made its calls: active means growth percent below 10; inactive means the rest.
Give one outcome, nothing more. List: active, inactive

Completed entries (count: 10):
ON=C(C1CCCCC1)C1CCCCC1
inactive
COC(=O)c1nc(=S)[nH]c(C(=O)OC)c1C(=O)c1ccc(OC)cc1
inactive
O=C(O)Cc1cc(=O)[nH]n(-c2ccccc2)c1=O
inactive
CC(C)(C)OC(=O)c1ccc(NCc2cc(O)ccc2O)cc1
active
COc1cc2c(cc1O)C(=O)CCCC2
inactive
Clc1ccc2c(c1)N(C1CCCN(Cc3ccccc3)C1)c1ccccc1S2 (centres undefined)
inactive
Cc1ccc(NC(=S)N/C=C(\c2ccccc2)S(=O)Cc2ccccc2)c(C)c1 (centres undefined)
inactive
C/C=C(/C(=O)NC(N)=O)C(C)C
inactive
COc1ccc(CCN=Cc2ccc(Cl)cc2)cc1OC
inactive
COc1ccc(CCO)cc1
inactive

Q) Hi team, can someone confirm the assay call for N=c1sc2ccccc2n1CC(=O)O ?
A) inactive

Q) And then O=[N+]([O-])c1cccc(N=Cc2ccccc2)c1 , what is it?
A) inactive

---

system: CCRF-CEM leukemia; test: NCI-60 one-dose screen, 48 h; settings: 10 µM unless noted
This is part of a sample that, as a whole, favours compounds with a hit. Of some 83,000 tested, about 20% had one in any assay. Active and inactive are the calls of the source. How the source made its calls: active means growth percent below 10; inactive means the rest.
Give one outcome, nothing more. List: t = active, f = inactive

Completed entries (count: 6):
O=[N+]([O-])c1ccc(NC(c2ccccc2)c2ccc3cccnc3c2O)cc1 (centres undefined)
f
CCN(CC)C(CC(=O)c1ccccc1)C(=O)c1ccccc1 (centres undefined)
f
COc1ccc(CCn2cnn3c(=O)c4ccccc4nc3c2=O)cc1OC
f
O=C(Nc1ccccc1)OCC(CN1CCCCC1)OC(=O)Nc1ccccc1 (centres undefined)
f
O=C(O)Cc1cc(=O)[nH]n(-c2ccccc2)c1=O
f
CCC(C)(O)CCC(C)(O)CC (centres undefined)
f

Q) Hi team, can someone confirm the assay call for NCCSSC/C=C\CSSCCN ?
A) f

Q) And then CCCC(=O)Oc1ccc(CC)cc1 , what is it?
A) f

Q) And then Nc1ccc2ccc(NS(=O)(=O)N3CCCCC3)cc2c1 , what is it?
A) f

Q) And then CC(C)(C)OC(=O)c1ccc(NCc2cc(O)ccc2O)cc1 , what is it?
A) t

Q) And then O=C(OCc1ccccc1)c1ccccc1 , what is it?
A) f

Q) And then O=C1c2cccnc2-c2ncccc21 , what is it?
A) f

Q) And then N#Cc1c[nH]n2ccnc12 , what is it?
A) f

Q) And then CC1NC(C)c2ccc3ccccc3c2O1 (centres undefined) , what is it?
A) f

---

test system: NCI-H460 lung; experiment: NCI-60 one-dose screen, 48 h (100 = growth as untreated, 0 = no growth, -100 = all killed); settings: 10 µM unless noted
Compounds without any hit were thinned out: in the full panel of roughly 83,000, 20% have a hit.
Each item that follows carries a reported growth.
Please state the figure in %; there is no need to write the unit.

Consider the reported growth for these compounds:
O=COCCCc1ccccc1
107
CC(=O)C[n+]1ccccc1Sc1ccc(Cl)cc1
77
O=C(c1ccccc1)C1(Br)CCCCC1
105

Q) Form field: growth recorded for O=C1Cc2ccccc2C(=O)N1 with NCI-H460 lung (enter value)
A) 110

Q) And then OCc1ccccc1F , what is it?
A) 48.1

---

Test system: EKVX NSCLC
Experiment: NCI-60 one-dose screen, 48 h (100 = growth as untreated, 0 = no growth, -100 = all killed)
Details: 10 µM unless noted
Procedure: Growth inhibition of the EKVX human Non-Small Cell Lung tumor cell line is measured as a screen for anti-cancer activity. Cells are grown in 96 well plates and exposed to the test compound for 48 hours. Compounds are tested at a single concentration, which is 10^-5 M for most compounds. The reported endpoint is percent growth (GI% or GIPRCNT), where numbers from 0 - 100% represent growth inhibition, and numbers from -100% - 0 represent cell death. […]
The panel holds about 83,000 compounds, 20% with a hit somewhere; the sample as a whole holds those more often. Active and inactive are the calls of the source. The calls were made as follows: active = growth percent below 10; inactive = the rest.
Result type: growth

CC(C)(C)OC(=O)c1ccc(NCc2cc(O)ccc2O)cc1
50.1% (inactive)

Q) I have this molecule here, CC1NC(C)c2ccc3ccccc3c2O1 (stereo not given) , and I need its recorded growth.
A) 123% (inactive)

Q) And then O=C(N=C1C(=O)C2(CCCCC2)C2(N=C(c3ccccc3)OC2=O)C12CCCCC2)c1ccccc1 (stereo not given) , what is it?
A) 70.5% (inactive)

Q) And then OCc1cccc(F)c1 , what is it?
A) 106% (inactive)

Q) And then CC1OS(=O)OC1C (stereo not given) , what is it?
A) 100% (inactive)

Q) And then COC(=O)c1ccccc1Cl , what is it?
A) 99.9% (inactive)

Q) And then CC(=O)c1cccc(OC(=O)c2ccccc2)c1 , what is it?
A) 110% (inactive)

Q) And then CC(C)(C)C1CCC(=NO)CC1 (stereo not given) , what is it?
A) 102% (inactive)
